Recorded viability at 10 µM by entry
Test system: Kasumi-7 cells
Assay comment: Human acute lymphoblastic leukemia cell line Kasumi-7 proliferation suppression test
Format: cell-based
Stated conditions: 72 h, compound 10 μM, 3 days, WST-8, read-out: cell survival rate (% of control) Kasumi-7

- Compound: "O=C1CCC(n2cc(-c3cscc3OCc3ccncc3)nn2)C(=O)N1 (stereo not drawn)"
  Measured target: "Kasumi-7 cells"
  Unit of measurement: "%"
  viability at 10 µM: 38
- Compound: "Cc1cscc1-c1cn(C2CCC(=O)NC2=O)nn1 (stereo not drawn)"
  Measured target: "Kasumi-7 cells"
  Unit of measurement: "%"
  viability at 10 µM: 69
- Compound: "O=C1CCC(n2cc(-c3cscc3OCc3ccc(Cl)cc3)nn2)C(=O)N1 (stereo not drawn)"
  Measured target: "Kasumi-7 cells"
  Unit of measurement: "%"
  viability at 10 µM: 42

###

System: REC-1 cells
Assay comment: Human mantle cell lymphoma cell line REC-1 proliferation suppression test
Format: cell-based
Stated conditions: Rec1, 72 h, compound 10 μM, 3 days, WST-8, read-out: cell survival rate (% of control) REC-1
Experimental: Example 53: Human Mantle Cell Lymphoma Cell Line REC-1 Proliferation Suppression Test REC-1 cells (ATCC, CRL-3004) were suspended in medium B, and diluted as appropriate with 0.4% trypan blue solution (Sigma-Aldrich Co. LLC.). The number of viable cells was counted with a hemocytometer (Funakoshi Co., Ltd.). […] After culturing at 37° C. in a 5% CO2 stream for 3 days, the cell proliferation activity was measured according to the instruction manual attached to WST-8 Kit (KISHIDA CHEMICAL Co., Ltd.).
Sorting guide: entries reporting viability at 10 µM beneath 20% go in the met pile, the rest go in the not met pile.

- Compound: "COc1sccc1-c1cn(C2CCC(=O)NC2=O)nn1 (centres unmarked) [compound 18]"
  Measured target: "REC-1 cells"
  Assigned class: "met"
- Compound: "COc1ccc(COc2cscc2-c2cn(C3CCC(=O)NC3=O)nn2)cc1 (centres unmarked) [compound 31]"
  Measured target: "REC-1 cells"
  Assigned class: "not met"
- Compound: "O=C1CCC(n2cc(-c3cscc3OCc3ccc(Cl)cc3)nn2)C(=O)N1 (centres unmarked) [compound 43]"
  Measured target: "REC-1 cells"
  Assigned class: "not met"
- Compound: "COc1c(-c2cn(C3CCC(=O)NC3=O)nn2)csc1Br (centres unmarked) [compound 23]"
  Measured target: "REC-1 cells"
  Assigned class: "not met"

###

Tested on: human peripheral blood mononuclear cells (PBMC)
Assay comment: Cytotoxicity test using human peripheral blood mononuclear cells (PBMC)
Type: cell-based
Stated conditions: compound 10 μg/mL, LPS, 24 hr, WST-1 or WST-8

- Compound: "CN(C)Cc1ccc(COc2cscc2-c2cn(C3CCC(=O)NC3=O)nn2)cc1.Cl (stereo not shown)"
  cell survival rate (% of control) PBMC: "110 % of control"
- Compound: "COc1c(-c2cn(C3CCC(=O)NC3=O)nn2)csc1Br (stereo not shown)"
  cell survival rate (% of control) PBMC: "104 % of control"
- Compound: "C[C@@H]1CN(Cc2ccc(COc3cscc3-c3cn(C4CCC(=O)NC4=O)nn3)cc2)C[C@H](C)O1 (stereo partly shown)"
  cell survival rate (% of control) PBMC: "110 % of control"
- Compound: "O=C1CCC(n2cc(-c3cscc3OCc3ccccn3)nn2)C(=O)N1 (stereo not shown)"
  cell survival rate (% of control) PBMC: "95 % of control"
- Compound: "O=C1CCC(n2cc(-c3cscc3OCC3CCCCC3)nn2)C(=O)N1 (stereo not shown)"
  cell survival rate (% of control) PBMC: "70 % of control"
- Compound: "O=C1CCC(n2cc(-c3cscc3OCc3ccncc3)nn2)C(=O)N1 (stereo not shown)"
  cell survival rate (% of control) PBMC: "78 % of control"
- Compound: "Cl.O=C1CCC(n2cc(-c3cscc3OCc3ccc(CCN4CCOCC4)cc3)nn2)C(=O)N1 (stereo not shown)"
  cell survival rate (% of control) PBMC: "110 % of control"
- Compound: "Cc1ccc(-c2cn(C3CCC(=O)NC3=O)nn2)s1 (stereo not shown)"
  cell survival rate (% of control) PBMC: "97 % of control"
- Compound: "O=C1CCC(n2cc(-c3cscc3OC3CCCC3)nn2)C(=O)N1 (stereo not shown)"
  cell survival rate (% of control) PBMC: "107 % of control"
- Compound: "Cc1cc(-c2cn(C3CCC(=O)NC3=O)nn2)cs1 (stereo not shown)"
  cell survival rate (% of control) PBMC: "96 % of control"

###

Recorded cell survival rate (% of control) PBMC by entry
System: human peripheral blood mononuclear cells (PBMC)
Assay comment: Cytotoxicity test using human peripheral blood mononuclear cells (PBMC)
Format: cell-based
Stated conditions: compound 10 μg/mL, LPS, 24 hr, WST-1 or WST-8
From the text: Example 56: Cytotoxicity Test Using Human Peripheral Blood Mononuclear Cells (PBMC) Peripheral blood of a healthy adult was collected in a Venoject II vacuum blood collection tube (Terumo, containing EDTA/2Na), and then diluted two-fold with an equal volume of OTSUKA NORMAL SALINE (Otsuka Pharmaceutical Co., Ltd.). […] The number of viable cells was counted with a hemocytometer (ERMA INC.). […]
Measure name: cell survival rate (% of control) PBMC

- Molecule: "O=C1CCC(n2cc(-c3ccc(Cl)s3)nn2)C(=O)N1 (centres unmarked)"
  Result: "115 % of control"
- Molecule: "CC(=O)c1ccc(-c2cn(C3CCC(=O)NC3=O)nn2)s1 (centres unmarked)"
  Result: "97 % of control"
- Molecule: "COc1cc(-c2cn(C3CCC(=O)NC3=O)nn2)cs1 (centres unmarked)"
  Result: "104 % of control"
- Molecule: "O=C1CCC(n2cc(-c3cscc3OCC3CC3)nn2)C(=O)N1 (centres unmarked)"
  Result: "89 % of control"
- Molecule: "COc1cscc1-c1nnn(C2CCC(=O)NC2=O)c1I (centres unmarked)"
  Result: "102 % of control"

###

Recorded viability at 10 µM by entry
Tested on: REC-1 cells
Assay comment: Human mantle cell lymphoma cell line REC-1 proliferation suppression test
Assay type: cell-based
Stated conditions: Rec1, 72 h, compound 10 μM, 3 days, WST-8, read-out: cell survival rate (% of control) REC-1

- Molecule: "CCOc1cscc1-c1cn(C2CCC(=O)NC2=O)nn1 (centres unmarked)"
  viability at 10 µM, %: 23
- Molecule: "O=C1CCC(n2cc(-c3cscc3Br)nn2)C(=O)N1 (centres unmarked)"
  viability at 10 µM, %: 43
- Molecule: "O=C1CCC(n2cc(-c3cscc3OCc3cc4ccccc4s3)nn2)C(=O)N1 (centres unmarked)"
  viability at 10 µM, %: 33
- Molecule: "O=C1CCC(n2cc(-c3cccs3)nn2)C(=O)N1 (centres unmarked)"
  viability at 10 µM, %: 65
- Molecule: "O=C1CCC(n2cc(-c3cscc3OCc3ccncc3)nn2)C(=O)N1 (centres unmarked)"
  viability at 10 µM, %: 27

###

Test system: Kasumi-7 cells
Assay comment: Human acute lymphoblastic leukemia cell line Kasumi-7 proliferation suppression test
Format: cell-based
Stated conditions: 72 h, compound 10 μM, 3 days, WST-8, read-out: cell survival rate (% of control) Kasumi-7
Sorting guide: entries reporting viability at 10 µM beneath 60% go in the 1 pile, the rest go in the -1 pile.

- Compound: "O=C1CCC(n2cc(-c3cscc3OCc3cc4ccccc4s3)nn2)C(=O)N1 (stereo not drawn)"
  Assigned class: 1
- Compound: "Cl.O=C1CCC(n2cc(-c3cscc3OCc3ccc(CCN4CCOCC4)cc3)nn2)C(=O)N1 (stereo not drawn) [compound 45, hydrochloride]"
  Assigned class: 1
- Compound: "C[C@@H]1CN(Cc2ccc(COc3cscc3-c3cn(C4CCC(=O)NC4=O)nn3)cc2)C[C@H](C)O1 (stereo partly drawn)"
  Assigned class: 1
- Compound: "CCOc1cc(-c2cn(C3CCC(=O)NC3=O)nn2)cs1 (stereo not drawn)"
  Assigned class: -1
- Compound: "O=C1CCC(n2cc(-c3cscc3OCc3ccccc3CN3CCOCC3)nn2)C(=O)N1 (stereo not drawn)"
  Assigned class: 1
- Compound: "COc1c(-c2cn(C3CCC(=O)NC3=O)nn2)csc1Cl (stereo not drawn)"
  Assigned class: -1
- Compound: "O=C1CCC(n2cc(-c3cscc3OCC3CC3)nn2)C(=O)N1 (stereo not drawn)"
  Assigned class: -1
- Compound: "O=C1CCC(n2cc(-c3cscc3Cl)nn2)C(=O)N1 (stereo not drawn)"
  Assigned class: -1
- Compound: "COc1c(-c2cn(C3CCC(=O)NC3=O)nn2)csc1Br (stereo not drawn)"
  Assigned class: -1

###

Tested on: human peripheral blood mononuclear cells (PBMC)
Assay comment: Cytotoxicity test using human peripheral blood mononuclear cells (PBMC)
Format: cell-based
Stated conditions: compound 10 μg/mL, LPS, 24 hr, WST-1 or WST-8

- Molecule: "CCCOc1cscc1-c1cn(C2CCC(=O)NC2=O)nn1 (stereo not drawn)"
  cell survival rate (% of control) PBMC: "116 % of control"
- Molecule: "CCOc1cc(-c2cn(C3CCC(=O)NC3=O)nn2)cs1 (stereo not drawn)"
  cell survival rate (% of control) PBMC: "91 % of control"
- Molecule: "Cc1cscc1-c1cn(C2CCC(=O)NC2=O)nn1 (stereo not drawn)"
  cell survival rate (% of control) PBMC: "101 % of control"
- Molecule: "CC(Oc1cscc1-c1cn(C2CCC(=O)NC2=O)nn1)c1ccccc1 (stereo not drawn)"
  cell survival rate (% of control) PBMC: "105 % of control"
- Molecule: "Cl.O=C1CCC(n2cc(-c3cscc3OCc3ccc(CN4CCCC4)cc3)nn2)C(=O)N1 (stereo not drawn)"
  cell survival rate (% of control) PBMC: "110 % of control"
- Molecule: "O=C1CCC(n2cc(-c3scc4c3OCCO4)nn2)C(=O)N1 (stereo not drawn)"
  cell survival rate (% of control) PBMC: "97 % of control"
- Molecule: "O=C1CCC(n2cc(-c3csc(CO)c3)nn2)C(=O)N1 (stereo not drawn)"
  cell survival rate (% of control) PBMC: "129 % of control"
- Molecule: "COCc1ccc(COc2cscc2-c2cn(C3CCC(=O)NC3=O)nn2)cc1 (stereo not drawn)"
  cell survival rate (% of control) PBMC: "99 % of control"
- Molecule: "O=C1CCC(n2cc(-c3ccsc3)nn2)C(=O)N1 (stereo not drawn)"
  cell survival rate (% of control) PBMC: "100 % of control"

The reported measurements were obtained from patent US11299485B2.
